// reported SI6 per item
Test system: L. major strain NIH S intramacrophage amastigotes
Test: Intramacrophage antileishmanial resazurin assay
Type: cell-based, Leishmania major
Conditions: SI6 = IC50 Vero/cidal IC50 amastigote, L. major
Response field accepts a number only; no unit should be typed.

Field SI6 (entry `O=C1NC(=S)S/C1=C\c1c[nH]c2ccc([N+](=O)[O-])cc12` ) reads 27

Sample `O=C1CSC(=S)N1/N=C/c1cn(Cc2ccccc2)c2ccc([N+](=O)[O-])cc12` ; SI6 observed: 41

The molecule listed as `O=C1NC(=S)S/C1=C\c1cn(Cc2ccccc2)c2ccc([N+](=O)[O-])cc12` shows SI6 equal to 37

Query `O=C1NC(=S)S/C1=C\c1cn(Cc2cccc(Cl)c2)c2ccc([N+](=O)[O-])cc12` yields SI6 of 8

SI6 for `C#CCn1cc(C=O)c2cc([N+](=O)[O-])ccc21` is 41

Further cases:
SI6 reported for this molecule `O=Cc1cn(Cc2cccc(Cl)c2)c2ccc([N+](=O)[O-])cc12` : 7

Looking up `C#CCn1cc(/C=N/N2C(=O)CSC2=S)c2cc([N+](=O)[O-])ccc21` , I see its SI6 listed as 12

The recorded SI6 for `O=Cc1cn(Cc2ccc(F)cc2)c2ccc([N+](=O)[O-])cc12` is 8
